Where do these numbers come from? They come from ChEMBL document CHEMBL1629439.

Tested on: Staphylococcus aureus
protocolText: Antimicrobial activity against methicillin-resistant Staphylococcus aureus isolate NTUH4722 after 18 to 24 hrs by alamar blue assay
Type: functional
Please respond with reported MIC for every item in the list.
Please reply with the bare figure in µg/mL and do not write the unit itself.

Query: Return MIC measured with Staphylococcus aureus given this molecule: CNC(=O)c1ccsc1NC(=O)c1ccc([N+](=O)[O-])o1
Result: 0.5

Query: Return MIC measured with Staphylococcus aureus given this molecule: CCCc1cc(O)nc(N2NC(C)=CC2NC(=O)c2ccccc2F)n1 (stereo not given)
Result: 1

Query: Return MIC measured with Staphylococcus aureus given this molecule: O=C(Nc1nnc(-c2ccc(Cl)cc2)o1)c1cccc(Cl)c1
Result: 0.125

Query: Return MIC measured with Staphylococcus aureus given this molecule: O=C(Nc1ccc(Cl)c(Cl)c1)c1cc(Cl)cc(Cl)c1O [3,3',4',5-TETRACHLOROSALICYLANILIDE]
Result: 1

Query: Return MIC measured with Staphylococcus aureus given this molecule: O=C1c2cccc3c([N+](=O)[O-])ccc(c23)C(=O)N1Cc1cccnc1
Result: 8

Query: Return MIC measured with Staphylococcus aureus given this molecule: O=C1c2ccc([N+](=O)[O-])c3c([N+](=O)[O-])ccc(c23)C(=O)N1c1ccccc1
Result: 1.25

Query: Return MIC measured with Staphylococcus aureus given this molecule: Cc1c(CC(=O)NCCC(=O)O)c(=O)oc2c(C)c3occ(-c4ccc(Cl)cc4)c3cc12
Result: 2.5

Query: Return MIC measured with Staphylococcus aureus given this molecule: O=C1c2cc([N+](=O)[O-])cc3cc([N+](=O)[O-])cc(c23)C(=O)N1Nc1ccc(Cl)cc1
Result: 2.5

Query: Return MIC measured with Staphylococcus aureus given this molecule: CCC1Sc2ccc(S(=O)(=O)Nc3c(C)cc(C)cc3C)cc2NC1=O (stereo not given)
Result: 32

Query: Return MIC measured with Staphylococcus aureus given this molecule: O=C(Nc1cccc(Cl)c1)c1cc(Br)cc(Br)c1O
Result: 2

Query: Return MIC measured with Staphylococcus aureus given this molecule: CC(C)N1C(=O)/C(=C/c2ccc([N+](=O)[O-])o2)SC1=S
Result: 2

Query: Return MIC measured with Staphylococcus aureus given this molecule: O=C(Nc1cc(Cl)ccc1Cl)c1cc(Br)cc(Br)c1O
Result: 0.5

Query: Return MIC measured with Staphylococcus aureus given this molecule: CCC(NC(=O)Cc1c(C)c2cc3c(-c4ccc(Cl)cc4)coc3c(C)c2oc1=O)C(=O)O (stereo not given)
Result: 2.5

Query: Return MIC measured with Staphylococcus aureus given this molecule: O=C(Nc1cc(Cl)cc(C(=O)c2ccccc2)c1Cl)c1cc(Br)cc(Br)c1O
Result: 4

Query: Return MIC measured with Staphylococcus aureus given this molecule: O=C(Nc1cc(Cl)ccc1Oc1ccccc1)c1cc(Br)cc(Br)c1O
Result: 0.5

Query: Return MIC measured with Staphylococcus aureus given this molecule: CCCc1cc(O)nc(N2NC(C)=CC2NC(=O)c2ccccc2Cl)n1 (stereo not given)
Result: 1

====

Test system: Escherichia coli
protocolText: Antimicrobial activity against Escherichia coli ATCC […] after 18 to 24 hrs by alamar blue assay
Assay type: functional
assayConditions: Escherichia coli; read-out: MIC
assayEndpoint: MIC

Query: Return MIC measured with Escherichia coli given this molecule: COc1cccc(-c2coc3c(C)c4oc(=O)c(CCC(=O)O)c(C)c4cc23)c1
Result: > 256 µg/mL

Query: Return MIC measured with Escherichia coli given this molecule: O=C(Nc1ccc(Oc2ccc(Cl)cc2)c(Cl)c1)c1cc(Br)cc(Br)c1O
Result: 8 µg/mL

Query: Return MIC measured with Escherichia coli given this molecule: CC[C@@H](C)[C@H](NC(=O)Cc1c(C)c2cc3c(-c4ccc(Cl)cc4)coc3c(C)c2oc1=O)C(=O)O
Result: > 256 µg/mL

Query: Return MIC measured with Escherichia coli given this molecule: Cc1c(CC(=O)NCC(=O)O)c(=O)oc2c(C)c3occ(-c4ccc(Cl)cc4)c3cc12
Result: > 256 µg/mL

Query: Return MIC measured with Escherichia coli given this molecule: Cc1ccc(C)c(C(=O)c2cc(NC(=O)c3cc(Br)cc(Br)c3O)ccc2Oc2ccc(Cl)cc2)c1
Result: 8 µg/mL

Query: Return MIC measured with Escherichia coli given this molecule: Cc1ccc(NS(=O)(=O)c2ccc3c(c2)NC(=O)C(C)S3)c(C)c1 (stereo unspecified)
Result: > 256 µg/mL
